Data provenance: patent US5739114A

- test: Cytotoxicity for monkey kidney fibroblasts
- Type: cell-based
endpoint: CC50

Input line: Could you share which CC50 value was measured for COc1cc(C2c3cc4c(cc3C3=NOCC3C2C(=O)O)OCO4)cc(OC)c1OC (stereo not shown) ?
Output line: > 10 µg/mL
